target_of_assay: human Y4 receptor (human, UniProt P50391 1-375)
Sequence (P50391 whole entry): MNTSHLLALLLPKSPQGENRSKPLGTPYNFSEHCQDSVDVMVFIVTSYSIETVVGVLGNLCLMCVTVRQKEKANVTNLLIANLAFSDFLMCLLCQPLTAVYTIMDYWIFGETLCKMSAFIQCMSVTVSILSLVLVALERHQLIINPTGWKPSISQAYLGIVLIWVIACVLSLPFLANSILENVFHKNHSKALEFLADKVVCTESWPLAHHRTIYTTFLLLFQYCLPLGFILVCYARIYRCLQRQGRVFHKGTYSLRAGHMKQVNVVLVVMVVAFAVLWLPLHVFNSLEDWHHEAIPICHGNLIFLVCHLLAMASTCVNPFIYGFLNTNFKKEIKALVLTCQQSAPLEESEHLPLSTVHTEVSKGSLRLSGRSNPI
assay_name: 125I-PP displacement
property: IC50 (nM)

# binder, property, endpoint_value
records = [
    ("PLEPHYPGDNATPEQMARYAAELRRYINKLTRPRY [4057900]", "IC50", 0.09),
    ("PAPLEPHYPGDNATPEQMAKYAAELRRYINKLTRPRY [4057766]", "IC50", 0.089),
    ("AAPLEPHYPGDNATPEQMAKYAAELRRYINKLTRPRY [4057765]", "IC50", 0.075),
]
